The following molecules are shown together with reported solubility at 12 h values.
- PROTOCOL_DETAILS: Solubility of antibacterial peptides in solution
- Assay type: physicochemical
- CONDITION_CONTEXT: aqueous buffer
Square brackets hold non-standard residues; d marks the D form. Peptide text beside a SMILES is read from it.

Record excerpt, results attached:
CC[C@@H](C)[C@@H](NC(=O)[C@@H](Cc1c[nH]c2ccccc12)NC(=O)[C@@H](CCCCN)NC(=O)[C@@H](CCCCN)NC(=O)[C@H](N)CCCCN)C(=O)N[C@H](Cc1c[nH]c2ccccc12)C(=O)N[C@@H](C(=O)N[C@H](CC(C)C)C(=O)N[C@H](Cc1c[nH]c2ccccc12)C(=O)N[C@H](CCCCN)C(N)=O)C(C)C [KSH46, kkkwiwvlwk] (H-[dK][dK][dK][dW][dI][dW][dV][dL][dW][dK]-NH2; N-terminus assumed)	> 200 µM
CC[C@@H](C)[C@@H](NC(=O)[C@@H](Cc1c[nH]c2ccccc12)NC(=O)[C@H](NC(=O)[C@@H](CC(C)C)NC(=O)[C@@H](Cc1c[nH]c2ccccc12)NC(=O)[C@H](N)CC(=O)O)C(C)C)C(=O)N[C@H](Cc1c[nH]c2ccccc12)C(=O)N[C@H](CCCNC(=N)N)C(=O)N[C@H](CCCNC(=N)N)C(=O)N[C@H](CCCNC(=N)N)C(N)=O [KSH36, dwlvwiwrrr] (H-[dD][dW][dL][dV][dW][dI][dW][dR][dR][dR]-NH2; N-terminus assumed)	> 200 µM

Okay, now this molecule:
// sample CC(C)[C@@H](NC(=O)[C@H](N)Cc1c[nH]c2ccccc12)C(=O)N[C@@H](C(=O)N[C@H](Cc1c[nH]c2ccccc12)C(=O)N[C@H](Cc1c[nH]c2ccccc12)C(=O)N[C@@H](C(=O)N[C@H](CCCNC(=N)N)C(=O)N[C@H](CCCNC(=N)N)C(=O)N[C@H](CCCNC(=N)N)C(N)=O)C(C)C)C(C)C [KSH40, wvvwwvrrr] (H-[dW][dV][dV][dW][dW][dV][dR][dR][dR]-NH2; N-terminus assumed) , its solubility at 12 h was ≥ 100 µM
